Test system: SH rat prostate
measurement_description: 5 day systemic administration in male SH rats, prostate
Format: in vivo
setup_conditions: male SH rats, oral daily for 5 days at 50 mg/ml, day 6
observable: Prostate shrinkage (%)

1) NC(=O)c1nn(Cc2ccc(Cl)cc2Cl)c2ccccc12	−8.1
2) CONC(=O)c1nn(Cc2ccc(Cl)cc2Cl)c2ccccc12	6.9
3) O=C(NO)c1nn(Cc2ccc(Cl)cc2Cl)c2ccc(Cl)cc12	6.8
4) O=C(c1nn(Cc2ccc(Cl)cc2Cl)c2ccccc12)N1CCOCC1	3.3
5) O=C(NO)c1nn(Cc2ccc(Cl)cc2Cl)c2ccccc12	−4.8
6) O=C(O)c1nn(Cc2ccc(Cl)cc2Cl)c2ccccc12	17
7) O=C(Nc1cccnc1)c1nn(Cc2ccc(Cl)cc2Cl)c2ccccc12	8.7
8) O=C(O)c1nn(Cc2c(Cl)cccc2Cl)c2ccccc12	−2.9

----------
measurement_description: 5 day systemic administration in male SH rats, pharmacokinetic blood samples
Type: in vivo, rat
setup_conditions: oral daily for 5 days at 50 mg/ml, blood 2 hours after administration
PK less than 100 µg/mL is Yes; PK greater than or equal to 100 µg/mL is No.

1) O=C(O)c1nn(Cc2ccc(Cl)cc2Cl)c2ccccc12 [Compound 12]	No
2) NC(=O)c1nn(Cc2ccc(Cl)cc2Cl)c2ccccc12 [Compound 5]	Yes
3) O=C(Nc1cccnc1)c1nn(Cc2ccc(Cl)cc2Cl)c2ccccc12 [Compound 51]	Yes
4) O=C(NO)c1nn(Cc2ccc(Cl)cc2Cl)c2ccc(Cl)cc12 [Compound 54]	No
5) O=C(O)c1nn(Cc2c(Cl)cccc2Cl)c2ccccc12 [Compound 3]	No
6) CONC(=O)c1nn(Cc2ccc(Cl)cc2Cl)c2ccccc12 [Compound 53]	Yes

----------
Test system: PNt2 cells
measurement_description: Antiproliferation assay 3 days, PNt2 cells
Assay type: cell-based
setup_conditions: 3 day treatment; read-out: PNT2c cell line IC50
pIC50: −log10 of the molar value.
observable: pIC50

1. O=C(O)c1nn(Cc2ccc(Cl)cc2Cl)c2ccccc12	3.70
2. O=C(NO)c1nn(Cc2ccc(Cl)cc2Cl)c2ccccc12	4.77
3. O=C(O)c1nn(Cc2c(Cl)cccc2Cl)c2ccccc12	3.59
4. CN(O)C(=O)c1nn(Cc2ccc(Cl)cc2Cl)c2ccccc12	5.90

----------
Test system: PC3 cells
measurement_description: Antiproliferation assay 3 days, PC3 cells
Type: cell-based, human
setup_conditions: 3 day treatment; read-out: PC-3 cell line IC50
observable: IC50 (µM)

1. O=C(O)c1nn(Cc2ccc(Cl)cc2Cl)c2ccccc12	195
2. O=C(O)c1nn(Cc2c(Cl)cccc2Cl)c2ccccc12	191
3. CN(O)C(=O)c1nn(Cc2ccc(Cl)cc2Cl)c2ccccc12	4
4. O=C(NO)c1nn(Cc2ccc(Cl)cc2Cl)c2ccccc12	15

----------
measurement_description: 5 day systemic administration in male SH rats, pharmacokinetic blood samples
Type: in vivo, rat
setup_conditions: rat, in vivo, oral daily for 5 days at 50 mg/ml, blood 2 hours after administration, read-out: PK
observable: concentration at 2 h

1. N#Cc1ccc(Cn2nc(C(=O)O)c3ccccc32)c(Cl)c1	0 µg/mL
2. OCc1nn(Cc2ccc(Cl)cc2Cl)c2ccccc12	0 µg/mL
3. O=C(O)c1nn(Cc2ccc(Cl)cc2)c2ccc(Cl)cc12	614 µg/mL
